Cited source: patent US20180327506A1

Would you mind telling me the reported % live, FAB-saporin killing assay of each entry?
Target: T1, full-length mature human CD97 (residues Q21-I845) with N-terminal aspartic acid/lysine epitope tag, … (human, UniProt P48960 21-835); further: test concentration or dose not given here
T1 sequence (looked up): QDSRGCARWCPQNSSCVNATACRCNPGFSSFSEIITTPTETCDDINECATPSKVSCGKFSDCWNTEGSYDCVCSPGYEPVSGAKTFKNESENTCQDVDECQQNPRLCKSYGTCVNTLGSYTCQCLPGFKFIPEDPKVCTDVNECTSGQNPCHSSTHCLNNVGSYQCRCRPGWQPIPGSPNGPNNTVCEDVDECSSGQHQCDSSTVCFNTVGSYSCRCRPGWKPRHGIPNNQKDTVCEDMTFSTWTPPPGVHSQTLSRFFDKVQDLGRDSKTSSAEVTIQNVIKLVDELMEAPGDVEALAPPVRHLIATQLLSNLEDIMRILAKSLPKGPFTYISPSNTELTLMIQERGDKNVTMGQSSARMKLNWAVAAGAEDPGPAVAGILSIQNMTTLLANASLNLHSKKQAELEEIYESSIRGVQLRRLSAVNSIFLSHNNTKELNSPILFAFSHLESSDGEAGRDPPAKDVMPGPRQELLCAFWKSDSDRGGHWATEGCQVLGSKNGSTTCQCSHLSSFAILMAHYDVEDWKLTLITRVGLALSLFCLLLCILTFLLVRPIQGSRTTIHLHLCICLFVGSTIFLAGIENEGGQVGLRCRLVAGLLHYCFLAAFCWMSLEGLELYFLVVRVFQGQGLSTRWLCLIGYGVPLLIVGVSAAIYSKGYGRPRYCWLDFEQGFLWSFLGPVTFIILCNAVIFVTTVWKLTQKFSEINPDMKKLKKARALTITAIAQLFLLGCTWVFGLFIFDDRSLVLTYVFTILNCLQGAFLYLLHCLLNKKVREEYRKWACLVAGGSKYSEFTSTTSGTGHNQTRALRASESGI
Test: cell-based or functional assay
Reply numerically in %, unit not repeated.

QUERY: Name the recorded % live, FAB-saporin killing assay for SC93.160 (antibody, IgG2a, V domains shown, murine, IgG2a) VH: QILLVQSGPELKKPGETVKISCKASGYTFTDYGIHWVKQAPGKGLKWMGWINTKTGVPTYADDFKGRFAFSLETSASTAYLQINNLKIEDTATYFCAGGNSLYYGSRPYWGQGTLVTVSA VL: DIVMTQSPSSLTVTAGEKVTMSCKSSQSLLNSGNQKNYLTWYQQKPGQPPKLLIYWASTRESGVPDRFTGSGSGTDFTLTISSVQAEDLAVYYCQNDYSYPTFGSGTKLELK .
RESULT: 105

QUERY: Name the recorded % live, FAB-saporin killing assay for SC93.219 (antibody, IgG2b, V domains shown, murine, IgG2b) VH: EVQLVESGGGLVQPGGSRKLSCAASGFTFSSYGMHWVRQAPEKGLEWVAYISSSGGTIYYADTVKGRFTISRDNAKNTLFLQMTSLRSEDTAMYYCARRGYGNSFDYWGQGTTLTVSS VL: QIVLTQSPAIMSASPGEKVTMTCSASSSVSYMYWYQQKPGSSPRLLIYDTSNLASGVPVRFSGSGSGTSYSLTISRMEAEDAATYYCQQWSSYPPFGGGTKLEIK .
RESULT: 102

QUERY: Name the recorded % live, FAB-saporin killing assay for SC93.216 (antibody, IgG1, V domains shown) VH: EVQLVESGGGLVKPGGSLKLSCAASGFTFSSYGMSWVRQTPEKRLEWVAAIHSNGDITYYPDTVKGRFTISRDNAKNTLYLQMSSLTSEDTALYYCANLAYWGQGTLVTVSA VL: EIQMTQSPSSMSASLGDRITITCQATQDIVKNLNWYQQKPGKSPSSLIYYATELAEGVPSRFSGSGSGSDYSLTISNLESEDFADYYCLQFYEFPLTFGAGTKLELK .
RESULT: 107
